Each record here notes measured IC50.
- Tested on: MOLM-13 cells
- assay comment: Cell viability assay (CellTiter-Glo) in MOLM-13 cells, alone or with gilteritinib
- Type: cell-based
- cond: Homo sapiens, MOLM-13, 72 h, MOLM-13 cells, with gilteritinib 20 nM, three days, CellTiter-Glo; read-out: MOLM-13 IC50 gilteritinib

{"molecule": "O=C1CCC(N2Cc3cc(NCCCCC4(N5CCC(n6cc(-c7cnc8ccccc8n7)cn6)CC5)CC4)ccc3C2=O)C(=O)N1 (stereo not shown)", "IC50": "> 1000 nM"}
{"molecule": "O=C1CCC(N2C(=O)c3ccc(NCCC[C@H]4C[C@H](n5cc(-c6ncccc6Cl)c(C6CC6)n5)C4)cc3C2=O)C(=O)N1 (stereo partly shown)", "IC50": "< 10 nM"}
{"molecule": "O=C1CCC(N2C(=O)c3ccc(NCCC[C@H]4C[C@H](n5cc(-c6cccc(N7CCNCC7)n6)cn5)C4)cc3C2=O)C(=O)N1 (stereo partly shown)", "IC50": "10 to 100 nM"}
{"molecule": "CN1CCN(c2ccc3ncc(-c4cnn(C5CC(CCCNc6ccc7c(c6)C(=O)N(C6CCC(=O)NC6=O)C7=O)C5)c4)nc3c2)CC1 (stereo not shown)", "IC50": "100 to 1000 nM"}
{"molecule": "O=C1CCC(N2C(=O)c3ccc(NC[C@H]4C[C@H](n5cc(-c6cnc7ccc(CN8CCOCC8)cc7n6)c(C6CC6)n5)C4)cc3C2=O)C(=O)N1 (stereo partly shown)", "IC50": "10 to 100 nM"}
{"molecule": "O=C1CCC(N2C(=O)c3ccc(NCCCCCC4(N5CCC(n6cc(-c7cnc8ccccc8n7)cn6)CC5)CC4)cc3C2=O)C(=O)N1 (stereo not shown)", "IC50": "< 10 nM"}
{"molecule": "O=C1CCC(N2C(=O)c3ccc(NCCCCNC(=O)N4CCC(n5cc(-c6cnc7ccccc7n6)cn5)CC4)cc3C2=O)C(=O)N1 (stereo not shown)", "IC50": "10 to 100 nM"}
{"molecule": "CNc1ccc(-c2cn([C@H]3C[C@H](CNc4ccc5c(c4)C(=O)N(C4CCC(=O)NC4=O)C5=O)C3)nc2C2CC2)nc1 (stereo partly shown)", "IC50": "100 to 1000 nM"}
{"molecule": "CN(C)c1cccc(-c2cn([C@H]3C[C@H](CNc4ccc5c(c4)C(=O)N(C4CCC(=O)NC4=O)C5=O)C3)nc2C2CC2)n1 (stereo partly shown)", "IC50": "< 10 nM"}
{"molecule": "O=C1CCC(N2Cc3c(Nc4ccnc(Nc5cccc(N6CCC(c7ccccn7)CC6)c5)n4)cccc3C2=O)C(=O)N1 (stereo not shown)", "IC50": "< 10 nM"}
{"molecule": "O=C1CCC(N2C(=O)c3ccc(NC[C@H]4C[C@H](n5cc(-c6cnc7ccc(N8CCOCC8)cc7n6)cn5)C4)cc3C2=O)C(=O)N1 (stereo partly shown)", "IC50": "< 10 nM"}
{"molecule": "O=C(CCC(F)(F)C(=O)N1CCC(n2cc(-c3cnc4cccc(Br)c4n3)cn2)CC1)NCc1ccc2c(c1)CN(C1CCC(=O)NC1=O)C2=O (stereo not shown)", "IC50": "< 10 nM"}
{"molecule": "O=C1CCC(N2Cc3c(Nc4ccnc(Nc5cccc(CN6CCC(n7cc(-c8cnc9ccccc9n8)cn7)CC6)c5)n4)cccc3C2=O)C(=O)N1 (stereo not shown)", "IC50": "> 1000 nM"}

The measurements presented in this section are drawn from patent US20240050428A1.
